Tested on: UACC-257 melanoma
Assay: NCI-60 one-dose screen, 48 h
Settings: 10 µM unless noted
Method: Cells are grown in 96 well plates and exposed to the test compound for 48 hours. Compounds are tested at a single concentration, which is 10^-5 M for most compounds. The reported endpoint is percent growth (GI% or GIPRCNT), where numbers from 0 - 100% represent growth inhibition, and numbers from -100% - 0 represent cell death. For example, a value of 40 represents 60% growth inhibition. A value of 0 means no net growth occurred over the course of the experiment. […]
About 83,000 compounds went through this panel and 20% of them were active in at least one assay; those are over-represented in the sample as a whole. Activity calls are given as the source filed them. The calls were made as follows: active = growth percent below 10; inactive = the rest.
Form entry, call: pick from active, inactive

Sample answers from the record:
COc1ccc(C2=C/C(=C\c3ccccc3O)C(=O)N2Cc2ccccc2)cc1: inactive
Nc1ncc(-c2ccc3ncnc(N4CCc5cc(F)c(Cl)cc54)c3c2)cn1: inactive

Test call for this compound, please: O=S(=O)(c1ccc(NCSc2nc3ccccc3s2)cc1)c1ccc(NCSc2nc3ccccc3s2)cc1
inactive

Test call for this compound, please: CCN1CCN(c2cc(C(=O)Nc3cccc(Nc4ccc5c(OC)cccc5n4)c3)cc(C(F)(F)F)c2)CC1
active

Which outcome did this test record for the compound Cc1nc2c(c(-c3ccccc3)n1)Cc1c(ccc3ccccc13)O2 ?
inactive

* * *

System: IGROV1 ovarian
Assay: NCI-60 one-dose screen, 48 h
Conditions: 10 µM unless noted
Compounds without any hit were thinned out: in the full panel of roughly 83,000, 20% have a hit. Calls of active or inactive are those of the source. How the source made its calls: active means growth percent below 10; inactive means the rest.
Lab note: assign the record to one of active, inactive

CC(C)(C)[C@H](OCc1cn([C@H]2C[C@@H](O)[C@@H](CO)O2)c(=O)[nH]c1=O)c1ccc(C#Cc2ccccc2)cc1[N+](=O)[O-]: inactive

Status in this test for COC(=O)[C@H]1Cc2c([nH]c3ccccc23)[C@H](c2ccc3c(c2)OCO3)N1 ?
inactive

In this assay, the call recorded for CSc1nc(N)c2c(n1)NC(c1ccccc1)C1CCc3ccccc3C1=N2 (centres undefined) was what?
inactive

Lab log entry: CS(=O)(=O)Nc1cc(-c2ccc3ncnc(Nc4cccc(Cl)c4)c3c2)cnc1Cl — outcome as called in the assay?
active

Please let me know the test result on file for NS(=O)(=O)Oc1cccc(-c2nc3sccn3c2-c2ccccc2)c1 .
inactive

Assay outcome for Fc1ccc(/C=C/c2cc(/C=C/c3ccc(F)cc3)n(-c3cc(F)cc(F)c3)n2)cc1 : what was it?
inactive

Hello, I am checking results. What call was entered for COc1ccc(Nc2nc(Nc3cc(C)[nH]n3)c3cc(OC)c(OC)cc3n2)cc1 ?
active

Write down the call the test reported for this compound. Item: CC1=C(C(=O)OCc2ccccc2)C(c2ccc3c(c2)OCO3)n2c(nc3ccccc32)N1 (centres undefined)
inactive

I'd appreciate the recorded outcome for CCN=c1sc2c(n1NC(=O)c1cc3ccc1CCc1ccc(cc1)CC3)C(=O)c1ccccc1C2=O from this test.
active

* * *

Test system: KM12 colon
Test: NCI-60 one-dose screen, 48 h (100 = growth as untreated, 0 = no growth, -100 = all killed)
Conditions: 10 µM unless noted
About 83,000 compounds went through this panel and 20% of them were active in at least one assay; those are over-represented in the sample as a whole.
With a cut-off of 90%, any growth strictly below it is called Satisfied; any growth meeting it or above is called Not satisfied.

C=CC(=O)Nc1ccc2ncnc(Nc3cccc(NS(=O)(=O)CCC)c3Cl)c2c1: Satisfied
CN1CCN(CC(=O)N(C)c2ccc(N=C(c3ccccc3)c3c(O)[nH]c4ccc([N+](=O)[O-])cc34)cc2)CC1: Satisfied
O=C(/C=C/c1ccc([N+](=O)[O-])cc1)c1cccc(Nc2nc(Nc3ccccc3)nc(Nc3ccccc3)n2)c1: Satisfied
CC(CN)[C@@H]1CC[C@]2(CO)CC[C@]3(C)[C@H](CC[C@@H]4[C@@]5(C)CCC(NCCO)C(C)(C)[C@@H]5CC[C@]43C)[C@@H]12 (some centres undefined): Satisfied
COc1ccc(-c2cn(Cc3ccc4c(Br)cc(Br)c(O)c4n3)nn2)cc1: Not satisfied

A record lists C=C1CC[C@@H]2[C@](C)(COC(C)=O)[C@H](OC(C)=O)CC[C@@]2(C)[C@@H]1CC(Nc1ccc(S(=O)(=O)Nc2nccc(C)n2)cc1)C1=CCOC1=O (some centres undefined) . Is its growth below 90%?
Satisfied

* * *

System: NCI-H322M lung
Assay: NCI-60 one-dose screen, 48 h
Conditions: 10 µM unless noted
Compounds without any hit were thinned out: in the full panel of roughly 83,000, 20% have a hit. Activity calls are given as the source filed them. How the source made its calls: active means growth percent below 10; inactive means the rest.
Allowed answers: active, inactive

See these solved cases before continuing.
COC(=O)[C@H]1Cc2c([nH]c3ccccc23)[C@H](c2ccc3c(c2)OCO3)N1: inactive
COc1cc(-c2ccc(-c3ccc(C(=N)N)s3)s2)cc(OC)c1OC: inactive
NCCNc1ccc([N+](=O)[O-])cc1: inactive
CCOC(=O)/C(=C\c1ccccc1Cl)P(=O)(OCC)OCC: inactive
O=C(CSc1nc(-c2ccccc2)cn1-c1ccc(Cl)cc1)c1ccc([N+](=O)[O-])cc1: inactive

Write down the call the test reported for this molecule. Item: CCCN1C2CCC1/C(=C\c1ccc(OC)cc1)C(=O)/C2=C/c1ccc(OC)cc1
inactive

I would be grateful if you could indicate the recorded call for Cc1ccc2c(c1)CC(O)CC1C(=O)N(CCO)CC(=O)N21 (stereo not given) .
inactive

Could you kindly confirm the outcome this assay logged for COC(=O)c1cc(-c2ccc(OC)c(OC)c2)[nH]c1N/N=C/c1c(Cl)cccc1Cl ?
inactive

Test call, this molecule: O=C(OCC(O)C(=O)NC12CC3CC(CC(C3)C1)C2)c1cccc(Br)c1 (stereo not given)
inactive

Hi team, can someone confirm the assay call for Oc1ccc(Cc2ccc(O)c3ncccc23)c2cccnc12 ?
active

Kindly provide the recorded test outcome for the following molecule: C=CCOC(=O)C1=C(C)N(CC)C(=O)N(CC)C1c1c(Cl)n(C)c2ccccc12 (stereo not given)
inactive

Dear colleague, could you share the recorded outcome for O=C(CSc1nnc(-c2cc(-c3ccc(Cl)cc3)nc3ccccc23)n1-c1ccccc1)Nc1ccc(Cl)cc1 when you have a moment?
inactive

Look up the recorded call for O=C(/C=C/c1ccc(Cl)cc1)c1ccc(-n2cc(CN3CCN(c4cc5c(cc4F)c(=O)c(C(=O)O)cn5C4CC4)CC3)nn2)cc1 in this test.
inactive

Short answer needed: outcome of this test for CCNCCNc1c(C)c(-c2ccc(C(F)(F)F)cc2)c(C#N)c2nc3ccccc3n12 ?
inactive

What is the recorded call for this molecule in the test? Cc1cc2nc(C(Cl)Cl)nc(-c3ccccc3)n2n1
inactive

* * *

System: ACHN renal
Assay: NCI-60 one-dose screen, 48 h (100 = growth as untreated, 0 = no growth, -100 = all killed)
Details: 10 µM unless noted
About 83,000 compounds went through this panel and 20% of them were active in at least one assay; those are over-represented in the sample as a whole.
Each record is given 1 if its reported growth is strictly below 90%. Records at or above 90% are given -1.

COc1cc2c(cc1-c1c(C)noc1C)ncc1nc(C3CCOCC3)n(C3CCC(OC(F)F)CC3)c12 (centres undefined): 1
CCOC(=O)CC1C(CNC(=O)NC)OC(n2cnc3c(NC(=O)Nc4ccccc4)ncnc32)C1O[Si](C)(C)C(C)(C)C (centres undefined): 1
CCOC(=O)c1ccc2c(c1)[n+](=O)c(C(C)=O)c(C(F)(F)F)n2[O-]: 1
Cc1ccc(C(=O)Nc2ccc(CN3CCN(C)CC3)c(C(F)(F)F)c2)cc1C#Cc1cnc(N)c2ccccc12: 1
CNC(=O)c1cc(Oc2ccc3nc(NC(=O)c4cc(C(F)(F)F)cc(C(F)(F)F)c4)sc3c2)ccn1: 1
COC(=O)CCc1c(/C=C2\N=C(c3ccc[nH]3)C=C2OC)[nH]c(C)c1C(=O)OCc1ccccc1: 1
CC(=O)CC(=O)c1ccccc1.[Cu+2]: -1
O=C(Nc1ccc(Cl)cc1)C1=NCCCCN1: 1
CN1CCN(Cn2nc(-c3cc(Cl)cc(Cl)c3Cl)oc2=S)CC1: -1
COC(=O)c1sc(-c2ccc(C)cc2)cc1O: -1

A record lists Cc1c(C(=O)C(SC(=S)N2CCOCC2)SC(=S)N2CCOCC2)nnn1-c1ccc([N+](=O)[O-])cc1 . Is its growth below 90%?
-1

Strictly below 90% in growth? Cc1ccc(Nc2nc(N)nc(N)c2N=O)cc1Cl
1

Decide: growth of O=C(/C=C/c1ccco1)c1ccc(Nc2ccnc3cc(Cl)ccc23)cc1 strictly below 90%?
-1

I'd appreciate it if you could check whether CCOc1ccccc1NC(=O)CCC(=O)OC has growth smaller than 90%.
-1

Does the reported growth of the following compound sit strictly below 90%? CCOC(=O)c1c(N)sc2cc(O)ccc12
-1

Would you kindly verify if growth of N/C(=N\c1nc2ccccc2s1)NC(=O)Nc1ccccc1 is strictly less than 90%?
1

Strictly below 90% in growth? COC(=O)c1cc(-c2ccc(OC)c(OC)c2)[nH]c1N/N=C/c1c(Cl)cccc1Cl
1

Determine if CNC(=O)c1cc(Oc2ccc3nc(NC(=O)NC(C)C)sc3c2)ccn1 shows growth strictly lower than 90%.
-1
